Would you kindly list Left and right paw swelling degree for each of these compounds?
system: adjuvant arthritis; assay: Rat adjuvant arthritis (AA) animal model; format: in vivo, SD rats; conditions: 4.0 mg/kg, intravenous in the tail once every five days from day 10, mean±SD
Peptide text beside a SMILES is read from it. * marks the point of attachment. X65 = O=C1C=CC(=O)N1c1cccc(CCCCCCCCCCCCC(=O)*)c1; X58 = O=C1C=CC(=O)N1c1cccc(CCCCCCCCCCCC(=O)*)c1; X84 = O=C1C=CC(=O)N1c1ccccc1CCCCCCCCCCCCC(=O)*; X59 = O=C1C=CC(=O)N1c1cccc(CCCCCCCCC(=O)*)c1; X72 = O=C1C=CC(=O)N1c1ccccc1CCCCCCCCCCC(=O)*; X54 = O=C1C=CC(=O)N1c1cccc(CCCCCCC(=O)*)c1; X63 = O=C1C=CC(=O)N1c1ccccc1CCCCCCC(=O)*; X61 = O=C1C=CC(=O)N1c1cccc(CCCC(=O)*)c1; X79 = O=C1C=CC(=O)N1c1cccc(CCC(=O)*)c1; X75 = O=C1C=CC(=O)N1c1cccc(CC(=O)*)c1
One number for each entry, in mm.

Below, each entry is followed by its recorded Left and right paw swelling degree result.
C[C@H](NC(=O)CNC(=O)[C@H](CCCNC(=N)N)NC(=O)CCCCCCc1ccccc1N1C(=O)C=CC1=O)C(=O)N[C@@H](CC(=O)O)C(=O)N[C@@H](CCCNC(=N)N)C(=O)N[C@@H](C)C(=O)NCC(=O)NCC(=O)NCC(=O)NCC(=O)N[C@@H](CCCNC(=N)N)C(=O)NCC(=O)N[C@@H](CC(=O)O)C(=O)O [X18] (X63-RGADRAGGGGRGD-OH)	3.81
C[C@H](NC(=O)CNC(=O)[C@H](CCCNC(=N)N)NC(=O)CCCCCCc1cccc(N2C(=O)C=CC2=O)c1)C(=O)N[C@@H](CC(=O)O)C(=O)N[C@@H](CCCNC(=N)N)C(=O)N[C@@H](C)C(=O)NCC(=O)NCC(=O)NCC(=O)NCC(=O)N[C@@H](CCCNC(=N)N)C(=O)NCC(=O)N[C@@H](CC(=O)O)C(=O)O [X30] (X54-RGADRAGGGGRGD-OH)	3.76
C[C@H](NC(=O)CNC(=O)[C@H](CCCNC(=N)N)NC(=O)CCCCCCCCCCCc1cccc(N2C(=O)C=CC2=O)c1)C(=O)N[C@@H](CC(=O)O)C(=O)N[C@@H](CCCNC(=N)N)C(=O)N[C@@H](C)C(=O)NCC(=O)NCC(=O)NCC(=O)NCC(=O)N[C@@H](CCCNC(=N)N)C(=O)NCC(=O)N[C@@H](CC(=O)O)C(=O)O [X35] (X58-RGADRAGGGGRGD-OH)	3.78

Give measured Left and right paw swelling degree for every item shown.
1. C[C@H](NC(=O)CNC(=O)[C@H](CCCNC(=N)N)NC(=O)CCCCCCCCCCCCc1ccccc1N1C(=O)C=CC1=O)C(=O)N[C@@H](CC(=O)O)C(=O)N[C@@H](CCCNC(=N)N)C(=O)N[C@@H](C)C(=O)NCC(=O)NCC(=O)NCC(=O)NCC(=O)N[C@@H](CCCNC(=N)N)C(=O)NCC(=O)N[C@@H](CC(=O)O)C(=O)O [X24] (X84-RGADRAGGGGRGD-OH)
2. C[C@H](NC(=O)CNC(=O)[C@H](CCCNC(=N)N)NC(=O)CCCCCCCCCCc1ccccc1N1C(=O)C=CC1=O)C(=O)N[C@@H](CC(=O)O)C(=O)N[C@@H](CCCNC(=N)N)C(=O)N[C@@H](C)C(=O)NCC(=O)NCC(=O)NCC(=O)NCC(=O)N[C@@H](CCCNC(=N)N)C(=O)NCC(=O)N[C@@H](CC(=O)O)C(=O)O [X22] (X72-RGADRAGGGGRGD-OH)
3. C[C@H](NC(=O)CNC(=O)[C@H](CCCNC(=N)N)NC(=O)Cc1cccc(N2C(=O)C=CC2=O)c1)C(=O)N[C@@H](CC(=O)O)C(=O)N[C@@H](CCCNC(=N)N)C(=O)N[C@@H](C)C(=O)NCC(=O)NCC(=O)NCC(=O)NCC(=O)N[C@@H](CCCNC(=N)N)C(=O)NCC(=O)N[C@@H](CC(=O)O)C(=O)O [X25] (X75-RGADRAGGGGRGD-OH)
4. C[C@H](NC(=O)CNC(=O)[C@H](CCCNC(=N)N)NC(=O)CCCCCCCCc1cccc(N2C(=O)C=CC2=O)c1)C(=O)N[C@@H](CC(=O)O)C(=O)N[C@@H](CCCNC(=N)N)C(=O)N[C@@H](C)C(=O)NCC(=O)NCC(=O)NCC(=O)NCC(=O)N[C@@H](CCCNC(=N)N)C(=O)NCC(=O)N[C@@H](CC(=O)O)C(=O)O [X32] (X59-RGADRAGGGGRGD-OH)
5. C[C@H](NC(=O)CNC(=O)[C@H](CCCNC(=N)N)NC(=O)CCCCCCCCCCCCc1cccc(N2C(=O)C=CC2=O)c1)C(=O)N[C@@H](CC(=O)O)C(=O)N[C@@H](CCCNC(=N)N)C(=O)N[C@@H](C)C(=O)NCC(=O)NCC(=O)NCC(=O)NCC(=O)N[C@@H](CCCNC(=N)N)C(=O)NCC(=O)N[C@@H](CC(=O)O)C(=O)O [X36] (X65-RGADRAGGGGRGD-OH)

[3.94, 3.92, 3.76, 3.91, 4.00]

Give measured Left and right paw swelling degree for every item shown.
1. C[C@H](NC(=O)CNC(=O)[C@H](CCCNC(=N)N)NC(=O)CCc1cccc(N2C(=O)C=CC2=O)c1)C(=O)N[C@@H](CC(=O)O)C(=O)N[C@@H](CCCNC(=N)N)C(=O)N[C@@H](C)C(=O)NCC(=O)NCC(=O)NCC(=O)NCC(=O)N[C@@H](CCCNC(=N)N)C(=O)NCC(=O)N[C@@H](CC(=O)O)C(=O)O [X26] (X79-RGADRAGGGGRGD-OH)
2. C[C@H](NC(=O)CNC(=O)[C@H](CCCNC(=N)N)NC(=O)CCCc1cccc(N2C(=O)C=CC2=O)c1)C(=O)N[C@@H](CC(=O)O)C(=O)N[C@@H](CCCNC(=N)N)C(=O)N[C@@H](C)C(=O)NCC(=O)NCC(=O)NCC(=O)NCC(=O)N[C@@H](CCCNC(=N)N)C(=O)NCC(=O)N[C@@H](CC(=O)O)C(=O)O [X27] (X61-RGADRAGGGGRGD-OH)

1. 3.81
2. 3.86
